What proliferation was measured for each of the following?
- System: primary human airway basal cells (HBEC, luciferase-transduced)
- experimental.details: proliferation (luciferase bioluminescence) Z score relative to plate mean; higher = more proliferation / more cells, active = 1.96 or more
- condition: donor: 1; 5 µM; library: ENZO Libraries; 4 days

Guide cases for proliferation, answers given:
>  <molecule>
O=C(O)c1cc(N(Cc2ccccc2O)Cc2cc(O)ccc2O)ccc1O [Lavendustin A]

>  <proliferation>
-0.457 (inactive)

$$$$
>  <molecule>
O=C(NCCCCN1CCOCC1)c1cc2ccccc2o1

>  <proliferation>
-0.00355 (inactive)

$$$$
>  <molecule>
CC[C@H](CO)Nc1nc(NCc2ccccc2)c2ncn(C(C)C)c2n1 [Roscovitine]

>  <proliferation>
-0.592 (inactive)

$$$$

# batch: return proliferation for each of the 6 molecules below
1. Oc1ccc(-c2nc(-c3ccc(F)cc3)c(-c3ccncc3)[nH]2)cc1
2. Nc1ccccc1NC(=O)CCCCCCC(=O)Nc1ccccc1
3. CC(C)C[C@H](NC(=O)[C@H]1O[C@@H]1C(=O)O)C(=O)NCCCCN=C(N)N
4. O=C(O)c1ccc2nc(-c3ccccc3)c(-c3ccccc3)nc2c1
5. N#CC(=Cc1ccc2[nH]ccc2c1)C(N)=C(C#N)C#N
6. C[C@H](CS)C(=O)N1CCC[C@H]1C(=O)O [Captopril]

Marked response:
1. 0.0853 (inactive)
2. 0.0632 (inactive)
3. -0.0032 (inactive)
4. -0.68 (inactive)
5. -0.386 (inactive)
6. -0.0768 (inactive)

# batch: return proliferation for each of the 3 molecules below
1. COC(=O)C[C@H](NC(=O)[C@H](C)NC(=O)[C@@H](NC(=O)OCc1ccccc1)C(C)C)C(=O)CF
2. CC(C)c1cc(/C=C(\C#N)C(=O)NCCCc2ccccc2)cc(C(C)C)c1O
3. O=c1ncccn1[C@@H]1O[C@H](CO)[C@@H](O)[C@H]1O [Zebularine]

Marked response:
1: -0.0506 (inactive); 2: -0.405 (inactive); 3: 0.0287 (inactive)

---

- Tested on: primary human airway basal cells (HBEC, luciferase-transduced)
- experimental.details: proliferation (luciferase bioluminescence) Z score relative to plate mean; higher = more proliferation / more cells, active = 1.96 or more
- condition: donor: 1; 0.5 µM; library: ENZO Libraries; 4 days
What proliferation was measured for each of the following?
Answers are plain numbers.

Guide cases for proliferation, answers given:
>  <compound>
CO[C@H]1C[C@@H]2CC[C@@H](C)[C@@](O)(O2)C(=O)C(=O)N2CCCC[C@H]2C(=O)O[C@H]([C@H](C)C[C@@H]2CC[C@@H](O)[C@H](OC)C2)CC(=O)[C@H](C)/C=C(\C)[C@@H](O)[C@@H](OC)C(=O)[C@H](C)C[C@H](C)/C=C/C=C/C=C/1C

>  <proliferation>
-3.38

$$$$
>  <compound>
O=c1c(-c2ccc(O)cc2)coc2cc(O)ccc12

>  <proliferation>
0.207

$$$$

Note to self: proliferation of CSCCC(C=O)NC(=O)C(CC(C)C)NC(=O)[C@H](CC(C)C)NC(C)=O (stereo partly drawn) with primary human airway basal cells (HBEC, luciferase-transduced) was 0.241

---

- Test system: primary human airway basal cells (HBEC, luciferase-transduced)
- experimental.details: proliferation (luciferase bioluminescence) Z score relative to plate mean; higher = more proliferation / more cells, active = 1.96 or more
- condition: donor: 1; 0.5 µM; library: ENZO Libraries; 4 days
Lab note: class by proliferation, see one: < -0.3; two: ≥ -0.3 and < 0.1; three: ≥ 0.1

Examples with answers:
>  <compound>
CO[C@@H]1[C@H](OC(=O)/C=C/C=C/C=C/C=C/C(=O)O)CC[C@]2(CO2)[C@H]1[C@@]1(C)O[C@@H]1CC=C(C)C [Fumagillin]

>  <category.label>
one

$$$$
>  <compound>
O=C(O)CCCc1ccccc1

>  <category.label>
one

$$$$
>  <compound>
O=C(O[C@@H]1Cc2c(O)cc(O)cc2O[C@@H]1c1cc(O)c(O)c(O)c1)c1cc(O)c(O)c(O)c1 [Epigallocatechin gallate]

>  <category.label>
three

$$$$
>  <compound>
CCOC(=O)C1=CN(Cc2ccccc2)C=C(C(=O)OCC)C1c1ccccc1

>  <category.label>
three

$$$$
>  <compound>
O=C1CCc2c(ccc3ccccc23)O1 [Splitomicin]

>  <category.label>
one

$$$$
>  <compound>
CCN1C(=O)C=CC1=O [N-Ethylmaleimide]

>  <category.label>
two

$$$$

Exam item: Hi, small favor: classify O=C1Nc2ccc([N+](=O)[O-])cc2C1=O [5-Nitroisatin] by its proliferation when you get a moment.
Marked response: three

Exam item: Hi, small favor: classify CN(C)c1ccc(/C=C2/C(=O)Nc3ccccc32)cc1 by its proliferation when you get a moment.
Marked response: two

Exam item: Hi, small favor: classify CC(C(=O)Nc1cccc(/N=C/c2c(O)ccc3ccccc23)c1)c1ccccc1 (stereo not given) [Salermide] by its proliferation when you get a moment.
Marked response: one

Exam item: Hi, small favor: classify O=C1c2ccccc2C(=O)c2c(NCCc3ccc(O)cc3)ccc(NCCc3ccc(O)cc3)c21 by its proliferation when you get a moment.
Marked response: three

Exam item: Hi, small favor: classify O=c1c(-c2ccc(O)cc2)coc2cc(O)cc(O)c12 [Genistein] by its proliferation when you get a moment.
Marked response: three

Exam item: Hi, small favor: classify CC(C)C(=O)SCCCCCCC(=O)Nc1nc(-c2ccccc2)cs1 by its proliferation when you get a moment.
Marked response: three
